Value source: the supplement of paper PMC9233669

# Tested on: biotinyl-Met-oxazolone
# test method notes: self-aminoacylation, catalytic enhancement (BMO) (fold over background); higher = more active; k-Seq, kA / k0A0; sequences stand for … in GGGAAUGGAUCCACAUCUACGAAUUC…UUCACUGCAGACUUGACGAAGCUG
Fewer inactive variants are shown than the library holds.
measure: self-aminoacylation
Give bare numbers.

AUUACCCGGGUCAUCGAGCGA [Fam2.1 aminoacylation ribozyme variant]    1.97
CUACUUCAAACAAUCGGUCAA [Fam1A.1 aminoacylation ribozyme variant]    0.695
AUUCACAUAGGUCUUCGGGUG [Fam2.2 aminoacylation ribozyme variant]    4.21

# batch size: 4; output self-aminoacylation per entry
1. AUUACGCUGGUCAUCGAUUGA [Fam2.1 aminoacylation ribozyme variant]
2. AUGACCCUGGUAAUCGAGUGA [Fam2.1 aminoacylation ribozyme variant]
3. GCACACUUCAAGCAAUCCGUC [Fam1B.1 aminoacylation ribozyme variant]
4. AUUGCUCUGGUCAUCGAGUGA [Fam2.1 aminoacylation ribozyme variant]

result:
[1.29, 5.08, 1.2, 6.02]

# batch size: 2; output self-aminoacylation per entry
1. AGUCACCUAGGGCAUCGGGUG [Fam2.2 aminoacylation ribozyme variant]
2. CUACUUCAAACCAUCGCUCUG [Fam1A.1 aminoacylation ribozyme variant]

result:
3.71
0.762

###

# Tested on: biotinyl-Ile-oxazolone
# test method notes: self-aminoacylation, catalytic enhancement (BIO) (fold over background); higher = more active; k-Seq, kA / k0A0; sequences stand for … in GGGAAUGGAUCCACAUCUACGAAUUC…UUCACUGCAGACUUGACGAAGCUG
Variants at the floor of the assay were thinned out.
Kindly state self-aminoacylation for each of the entries shown.

AUUCACUUAGGUCAACGGGUG [Fam2.2 aminoacylation ribozyme variant]    2.52
CUCCUUCAAACAAGCGGUCUG [Fam1A.1 aminoacylation ribozyme variant]    0.98
ACUCACCUAGGUCAUCGGAUG [Fam2.2 aminoacylation ribozyme variant]    1.13

# batch size: 5; output self-aminoacylation per entry
1. CUACUUCCAACAAUCGAUCUG [Fam1A.1 aminoacylation ribozyme variant]
2. AUUAACCUGGUCAUCGAGUGC [Fam2.1 aminoacylation ribozyme variant]
3. AUUCAUCUAAGUCAUCGGGUG [Fam2.2 aminoacylation ribozyme variant]
4. CCACACUUCAUGCAAUGGGUC [Fam1B.1 aminoacylation ribozyme variant]
5. AUUCCCCUGGUCAUCGAGCGA [Fam2.1 aminoacylation ribozyme variant]

result:
1: 0.747; 2: 0.994; 3: 6.41; 4: 0.751; 5: 2.14

# batch size: 6; output self-aminoacylation per entry
1. GUUCGCCUAGGUCAUCGGGUG [Fam2.2 aminoacylation ribozyme variant]
2. AAGUUUGCUAAUAGUCGAAUG [Fam3.1 aminoacylation ribozyme variant]
3. AAGUUCGCUAAUAGUCGCAAG [Fam3.1 aminoacylation ribozyme variant]
4. CUACUUCAAACAAUUGGCCUG [Fam1A.1 aminoacylation ribozyme variant]
5. CUCCUUCAAACAAUCCGUCUG [Fam1A.1 aminoacylation ribozyme variant]
6. AUUACCCUGCUGAUCGAGUGA [Fam2.1 aminoacylation ribozyme variant]

result:
1: 9.85; 2: 1.09; 3: 2.04; 4: 1.57; 5: 1.03; 6: 1.93
